Consider the following compounds; for each one, report its growth inhibition.
- Protocol Notes: NCI Yeast Anticancer Drug Screen. Data for the bub3 strain (AID 167)
- Test Settings: S. cerevisiae bub3 mutant strain, at 5.0 µM (retest, dose inferred, filed as 0.5), active compounds read high
This is part of a sample that, as a whole, favours compounds with a hit. Of some 79,000 tested, about 15% had one in any assay.
Answers are plain numbers, in %.

These solved cases illustrate the format of a correct answer.
compound=Oc1c(Cl)c(Cl)c(Cl)c(Cl)c1Cl.[Cu+2] measured_value=11
compound="O=C(O)C1C2CCC(C2)C1c1ccccc1 (stereo unspecified)" measured_value=29
compound="CC(Br)c1ccccc1 (stereo unspecified)" measured_value=6
compound="COC(=O)C1c2cc3c(c(O)c2C(O)CC1(C)O)C(=O)c1c(O)cc2c(c1C3=O)OC1OC2(C)C(O)C(N(C)C)C1O (stereo unspecified)" measured_value=-26
compound=CC[C@@]1(O)C(=O)OCc2c1cc1n(c2=O)Cc2cc3ccccc3nc2-1 measured_value=-16

// moving on: another record for growth inhibition
// Input: O=C(CI)NCc1ccccc1 . Output its growth inhibition only.
31

---

- Protocol Notes: NCI Yeast Anticancer Drug Screen. Data for the rad50 strain (AID 155);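 note: 0% = growth of vehicle-only cultures of the same strain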
- Test Settings: S. cerevisiae rad50 strain growth inhibition; at 3.7 µM; active compounds read high
Compounds without any hit were thinned out: in the full panel of roughly 79,000, 15% have a hit.
Quantity Name: growth inhibition (%)
Numbers only, in %.

Here is how some molecules turned out for growth inhibition.
molecule=CS(=O)(=O)OCCN(CCOS(C)(=O)=O)c1ccc(C=O)cc1 quantity_name="growth inhibition" endpoint_unit=% measured_value=34
molecule="COc1cccc2c1C(=O)c1c(O)c3c(c(O)c1C2=O)C[C@@](O)(/C(C)=N\\O)C[C@@H]3OC1CC(N)C(O)C(C)O1 (stereo partly specified)" quantity_name="growth inhibition" endpoint_unit=% measured_value=52
molecule="C[N+]1(CCCl)CC[N+](C)(CCCl)CC1 (stereo unspecified)" quantity_name="growth inhibition" endpoint_unit=% measured_value=2
molecule="COC1CC(CC2CCC(C)C(C(C)C(=O)O)O2)OC2(OC(C)(C3CCC(C)(C4OC(C5OC(O)(CO)C(C)CC5C)CC4C)O3)CC2C)C1C (stereo unspecified)" quantity_name="growth inhibition" endpoint_unit=% measured_value=19
molecule=O=C(O)CCCOc1cc(Cl)c(Cl)cc1Cl quantity_name="growth inhibition" endpoint_unit=% measured_value=-17

For every item in the list below, what is its measured growth inhibition?
1. Cn1cnc(N)c1C(=N)[Se]
2. CC[C@@]1(O)C(=O)OCc2c1cc1n(c2=O)Cc2cc3c(NC(=O)CN)cccc3nc2-1
3. COC1C(O)C(C)OC(OC2C(Oc3cccc4c(O)c5c(=O)oc6ccc(C)c7c(=O)oc(c34)c5c67)OC(C)C(O)C2O)C1O (stereo unspecified)
4. COC(=O)C1=C(C(=O)OC)SC2(S1)C(C(=O)OC)=C(C(=O)OC)Sc1c2ssc1=O
5. C[C@@]12CCC(=O)C=C1CC[C@H]1C2=CC[C@]2(C)C1CC[C@@]2(C)O (stereo partly specified)
6. COC(=O)C1C2c3ccccc3C(c3ccccc32)C1C(=O)OC (stereo unspecified)
7. c1cc2c(cc1C1OC[C@H]3[C@@H](c4ccc5c(c4)OCO5)OC[C@@H]13)OCO2 (stereo partly specified)

59
21
78
73
7
1
-19

Please state, for each entry, its recorded growth inhibition.
1. CCCCCCCCCCCCCCCCP(=O)(O)OP(=O)(O)OCC1OC(n2ccc(N)nc2=O)C(O)C1O (stereo unspecified)
2. C[C@]12CCc3nonc3C1CC[C@@H]1C2CC[C@]2(C)C(=O)CCC12 (stereo partly specified)
3. CCN(CCCl)CCCCNc1c2ccccc2nc2ccc(OC)cc12
4. CC1=C(CO)C2=C(C)C3(CC3)[C@@](C)(O)C(=O)C2=C1

1
7
64
3

// for each molecule in input: emit growth inhibition
1. Br[Se]c1ccccn1
2. CC1CN=C(Nc2ccccc2)S1 (stereo unspecified)
3. O=[N+]([O-])c1cc([As](Br)c2ccc(O)c([N+](=O)[O-])c2)ccc1O
4. Oc1ccc(Cl)cc1Cc1ccccc1
5. CCC(=O)OC1CCn2c1nc1c2C(=O)C(C)=C(N2CC2)C1=O (stereo unspecified)

1. 91
2. 12
3. 89
4. -43
5. -3

---

For each entry below, report its growth inhibition value.
- Protocol Notes: NCI Yeast Anticancer Drug Screen. Data for the mec2-1 strain (AID 157)
- Test Settings: S. cerevisiae mec2-1 strain, at 3.7 µM, active compounds read high
The panel holds about 79,000 compounds, 15% with a hit somewhere; the sample as a whole holds those more often.
Numbers only, in %.

Worked examples, 8 compounds total:
compound=O=C1C=CC(=O)C1(Br)Br quantity_name="growth inhibition" measured_value=5
compound=Nc1nc(N)c(-c2ccc(Cl)c(Cl)c2)c(CP(Cl)(Cl)(Cl)Br)n1 quantity_name="growth inhibition" measured_value=7
compound=[Pt].c1ccc(P(CCP(c2ccccc2)c2ccccc2)CCP(c2ccccc2)c2ccccc2)cc1 quantity_name="growth inhibition" measured_value=-14
compound=NNc1ccccc1Cl quantity_name="growth inhibition" measured_value=68
compound=Oc1cccc2nc3ccccc3nc12 quantity_name="growth inhibition" measured_value=-44
compound="O=[N+]([O-])O.[NH-]C1CCCCC1[NH-].[NH-]C1CCCCC1[NH-].[NH-]C1CCCCC1[NH-].[OH-].[OH-].[OH-].[Pt+4].[Pt+4].[Pt+4] (stereo unspecified)" quantity_name="growth inhibition" measured_value=-6
compound=CCN(CCCl)c1cc(CN(C)C)cc(NC(=O)c2ccc(C(=O)Nc3cc(CN(C)C)cc(N(CC)CCCl)c3)cc2)c1 quantity_name="growth inhibition" measured_value=1
compound=Oc1ccc2nc3ccccc3nc2c1 quantity_name="growth inhibition" measured_value=7

Hi! Can you tell me growth inhibition for each of these compounds?
1. CCOP(=S)(S)OCC.[Pd]
2. C/C(=N\N=C(N)N)C(CN1CCOCC1)C(c1ccccc1)c1c(O)c2ccccc2oc1=O (stereo unspecified)
3. O=C(Nc1cc(Cl)ccc1Cl)C(Cl)(Cl)Cl
4. O=C1c2ccc3ccccc3c2CCC1N1CCCCC1 (stereo unspecified)
5. Cn1cc(NC(=O)c2cc(NC(=O)CN=C(N)N)cn2C)cc1C(=O)NCCC(=N)N

67
1
6
11
18

I would be grateful if you could provide growth inhibition for each of the following entries.
1. CC1=C[C@H]2O[C@@H]3C[C@H]4OC(=O)/C=C\C=C\C(C(C)O)OCC(O)C(C)CC(=O)OC[C@@]2(C[C@@H]1O)[C@]4(C)[C@@]31CO1 (stereo partly specified)
2. O=C(/C=C(\c1ccccc1)N1CC1)c1ccccc1
3. COC(=O)C(F)C(Br)C(=O)OC (stereo unspecified)

[-3, 1, 73]

For the 4 compounds below, give their growth inhibition values.
1. C[N+]1(CCCl)CC[N+](C)(CCCl)CC1 (stereo unspecified)
2. O=C1C=C(CN(CCCl)CCCl)C(=O)C=C1CN(CCCl)CCCl
3. CC(C)CC(NC(=O)C(N)C(C)C)C(=O)NC(CCCCN)C(=O)Nc1ccc(N(CCCl)CCCl)cc1 (stereo unspecified)
4. CCS(=O)(=O)[O][Sn]([CH2]C)([CH2]C)[O]S(=O)(=O)CC

1: -3; 2: -8; 3: -17; 4: 3

---

- Protocol Notes: NCI Yeast Anticancer Drug Screen. Data for the mlh1 strain (AID 171);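 note: 0% = growth of vehicle-treated control cultures of the same strain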
- Test Settings: S. cerevisiae mlh1 strain growth inhibition; at 100.0 µM
About 79,000 compounds went through this panel and 15% of them were active in at least one assay; those are over-represented in the sample as a whole. Activity calls are given as the source filed them. Rule as the data show it: active = growth inhibition above about 70%; inactive = the rest.
In this exercise, the only acceptable responses are YES = active, NO = inactive

Each compound tested received a call. Report the one for C[C@]12CC[C@H](O)CC1=CC[C@@H]1[C@@H]2CC[C@]2(C)C(=O)CC[C@@H]12 .
YES

Could you kindly confirm the outcome this assay logged for c1ccc2cc3n[se]nc3cc2c1 ?
YES

Dear all, I need the recorded test outcome for CCNC(=O)OCC1C2=C(C(=O)C(C)=C(N)C2=O)N2CC3C(N3C)C12OC (centres undefined) , thank you.
YES

Please state the recorded outcome for this compound: O=C(c1ccccc1)C1C(c2ccccc2[N+](=O)[O-])N1C1CCCCC1 (centres undefined)
YES

Identify the outcome logged in this assay for the compound shown: O=P(Oc1ccc(Cl)cc1)(Oc1ccc(Cl)cc1)N1CC1
NO

State the result this test recorded for N#CC(C#N)=Cc1ccc(C#N)cc1 .
NO

# fetch the recorded call for Oc1cccnc1[Se] here
YES

// outcome(item) with item = C[N+](C)(C)CC1CCCC(C[N+](C)(C)C)C1=O (centres undefined)
YES

Tell me the recorded outcome of this test for CC[C@]1(O)CC(OC2CC(N(C)C)C(O)C(C)O2)c2c(cc3c(c2O)C(=O)c2c(O)cccc2C3=O)[C@@H]1C(=O)OC (some centres undefined) .
YES

Hi team, can someone confirm the assay call for C[N+]1(CCCl)CC[N+](C)(CCCl)CC1 (centres undefined) ?
YES

Answer briefly: the call reported for c1c(N2CCOCC2)ssc1=[N+]1CCOCC1 in this assay.
NO

Please share the test call associated with Cc1c([N+](=O)[O-])oc2ccc3ccccc3c12 .
NO

Could you check what this test reported for CCCCCCCCCCCCCCCCP(=O)(O)OCC(N)C(=O)O (centres undefined) ?
YES

Would you mind telling me which call this test gave CC1=C(O)C(=O)C=C2C1=CC=C1[C@@]2(C)CCC2(C)[C@@H]3C[C@@H](C)C(=O)C[C@]3(C)CC[C@]12C (some centres undefined) ?
YES

What classification did NCCc1ccc(OCc2ccccc2)c(OCc2ccccc2)c1 end up with in this test?
YES

Test call, this compound: O=S(=O)(O)c1ccc(Cl)cc1.[Cd]
YES

// param item: O=C1OC2C(O1)C1(Cl)C(Cl)=C(Cl)C2(Cl)C1(Cl)Cl (centres undefined) ; yields the recorded call
NO
